# credit: patent US20250340623A1

- system-tested: alpha-synuclein fibrils (UniProt P37840 1-140)
- method-description: SPR, captured mAb
attribute-measured: log10(koff) (log10 of the value in s⁻¹)

INSERT INTO measurements (binder, attribute_measured, test_result) VALUES
  ('ACI-8033-6403A4-Ab1 (antibody, V domains shown, mouse hybridoma mAb; VH/VL only; also called 6403A4A3) VH: EVQLVESGGGLVQPKGSLKLSCAASGFSFNTYAMNWVRQAPGKGLEWVARIRSKSNNYTTYYADSVKDRFTISRDDSESMLYLQMNNLKTEDTAMYYCVRTMDYWGQGTSVTVSS VL: QIVLTQSPAIMSASLGEEITLTCSASSSISYMHWYQQKSGTSPKLLIHSTFNLASGVPSRFSGSGSGTFYSLTISSVEAEDAADYYCHQWSSYYTFGGGTKLEIK', 'log10(koff)', -3.22),
  ('ACI-8032-6301G2-Ab2 (antibody, V domains shown, mouse hybridoma mAb; VH/VL only; also called 6301G2D11) VH: EVQLQQSGPELVKPGASVKISCKASGYTFTDYFMNWVKQSHGKSLEWIGDINPNIGVTNYNPKFKDRATLTVDKSSSSAYMELRSLTSEDSTVYYCARGGGSNPLYYAMDYWGQGTSVTVSS VL: DIVMSQSPSSLAVSAGEKVTMSCKSSQSLLNSRTRKNYLAWYQQKPGQSPKLLIYWASTRESGVPDRFTGSGSGTDFTLTISSVQAEDLAVYFCKQSYDLWTFGGGTKLEIK', 'log10(koff)', -3.45),
  ('ACI-7079-3112H1-Ab1 (antibody, V domains shown, mouse hybridoma mAb; VH/VL only; also called 3112H1F3) VH: EVQLQQSGPELVKPGASVKISCKASGYTFSDYFMNWVKQSHGKSLEWIGDINPNNGGSSYIQKFKGKATLTVDKSSTTAYMELRSLTSEDSAVYYCARGSNYAMDSWGQGTSVTVSS VL: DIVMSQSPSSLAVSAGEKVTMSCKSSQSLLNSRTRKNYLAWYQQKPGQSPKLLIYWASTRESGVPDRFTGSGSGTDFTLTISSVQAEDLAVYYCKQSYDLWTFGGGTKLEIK', 'log10(koff)', -3.67),
  ('ACI-7079-2601B6-Ab1 (antibody, V domains shown, mouse hybridoma mAb; VH/VL only; also called 2601B6D2; ACI-7079-26016NAbM) VH: EIQLQQSGAELVRPGASVKLSCTTSGFNIKDDYIHWVKQRPEQGLEWIGWIDPENGDTDYASKFQGKATITADTSSNTAYLHLSSLTSEDAAVYFCTTRGFGYWGQGTLVTVS VL: DIVMTQSHKFMSTSVGDRVSITCKASQDVGNVVAWYQQKPGQSPKLLIYWASSRHTGVPDRFTGSGSGTEFTLTISNVQSEDLADYFCQQYSSYPLTFGAGTKLELK', 'log10(koff)', -3.42),
  ('ACI-7087-4119E10-Ab2 (antibody, V domains shown, mouse hybridoma mAb; VH/VL only; also called 4119E10D12) VH: QVQLQQSGAELVRPGASVTLSCKASGYTFSDYEMNWVKQTPVHGLEWIGAIDPETGGTAYNQKFKGKAILTSDKSSSTAYMELRSLTSEDSAVYYCTRFLLIDFDYWGQGTTLTVSS VL: DVLMTQTPLSLPVSLGDQASISCRSSQSIVHSNGNTYLEWYLKKAGQSPKVLIYKVSNRFSGVPDRFSGSGSGTDFTLKISRVEAEDLGVYYCFQGSHVPYTFGGGTELEIK', 'log10(koff)', -2.34);
